B1: TCEB3B (parent)
chain: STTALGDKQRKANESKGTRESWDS

# Variants of: B1
# test.description: protein stability index of a GFP-peptide fusion (GPS, HEK-293T) (PSI 1-6); higher = more stable;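 further: lentivirally expressed fusions sorted by FACS into six bins by GFP to DsRed ratio, PSI derived from sequencing read proportions per bin multiplied by bin number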
# experimental.parameters: c terminus: a fixed tail appended
Label 1 when protein stability index >= 4; otherwise -1.

Ask | Check this variant for protein stability index at or above 4: "K8H"
Reply | -1

Ask | Check this variant for protein stability index at or above 4: "T2L"
Reply | -1

Ask | Check this variant for protein stability index at or above 4: "K16D"
Reply | 1

Ask | Check this variant for protein stability index at or above 4: "L5E"
Reply | 1

Ask | Check this variant for protein stability index at or above 4: "R10S"
Reply | 1

Ask | Check this variant for protein stability index at or above 4: "S21P"
Reply | 1

Ask | Check this variant for protein stability index at or above 4: "S21W"
Reply | 1

Ask | Check this variant for protein stability index at or above 4: "A4D"
Reply | 1

Ask | Check this variant for protein stability index at or above 4: "D7F"
Reply | -1

Ask | Check this variant for protein stability index at or above 4: "R19C"
Reply | 1
